test system: tissue PDH activity; assay: Ex vivo PDH activation assay (liver and epididymal adipose tissue after oral administration); format: in vivo, Sprague-Dawley rats; conditions: adipose tissue, 20 hr after oral administration, 3 mg/kg, rat; mean ± standard deviation
reported metric: PDHa activity (% PDHt activity)

> print(dat)
                                   compound                  reported.metric  measured.value
1  C[C@H](O)COc1cc(-c2cnn(CC(C)(C)O)c2)c2c(c1)[C@@](O)(C(F)(F)F)c1ccccc1-2 [compound (1)]  PDHa activity (% PDHt activity)              56
2  CC(C)(C(N)=O)n1cc(-c2cc(F)cc3c2-c2ccccc2[C@]3(O)C(F)(F)F)cn1 [compound (D)]  PDHa activity (% PDHt activity)              24
3  CC(C)(O)COc1cc(-c2cnn(CC(C)(C)O)c2)c2c(c1)[C@@](O)(C(F)(F)F)c1ccccc1-2 [compound (2)]  PDHa activity (% PDHt activity)              36
4  NC(=O)Cn1cc(-c2cc(OCCC34CC5CC(CC(O)(C5)C3)C4)cc3c2-c2ccccc2[C@]3(O)C(F)(F)F)cn1 [compound (A), reference compound]  PDHa activity (% PDHt activity)              24

----------
assay: Metabolic stability test in liver microsome (human); type: in vitro ADME; settings: 60 min, 5 μM test compound
Form field: stability in liver microsome (residual ratio %) (one value per entry).
reported metric: stability in liver microsome (residual ratio %)

> print(dat)
                                   compound  measured.value
1  CC(C)(O)CCCOc1cc(-c2cnn(CC(C)(C)O)c2)c2c(c1)[C@@](O)(C(F)(F)F)c1ccccc1-2           78.9%
2  CC(C)(O)COc1cc(-c2cnn(CC(C)(C)O)c2)c2c(c1)[C@@](O)(C(F)(F)F)c1ccccc1-2           87.9%
3  NC(=O)Cn1cc(-c2cc(OCCC34CC5CC(CC(O)(C5)C3)C4)cc3c2-c2ccccc2[C@]3(O)C(F)(F)F)cn1 [compound (A), reference compound]            0.0%
4  Cn1cc(-c2cc(OCC(C)(C)O)cc3c2-c2ccccc2[C@]3(O)C(F)(F)F)cn1 [compound (B), reference compound]           88.2%
5  CC(C)(O)CCOc1cc(-c2cnn(CC(C)(C)O)c2)c2c(c1)[C@@](O)(C(F)(F)F)c1ccccc1-2           85.3%
6  C[C@H](O)COc1cc(-c2cnn(CC(C)(C)O)c2)c2c(c1)[C@@](O)(C(F)(F)F)c1ccccc1-2           87.8%

----------
target: hERG current (hERG-transfected HEK293 cells) (Homo sapiens, UniProt Q12809); construct: host or cells: HEK293; experiment: hERG whole cell patch clamp test; format: cell-based; conditions: concentration 10 μmol/L
Sequence (Q12809 whole entry): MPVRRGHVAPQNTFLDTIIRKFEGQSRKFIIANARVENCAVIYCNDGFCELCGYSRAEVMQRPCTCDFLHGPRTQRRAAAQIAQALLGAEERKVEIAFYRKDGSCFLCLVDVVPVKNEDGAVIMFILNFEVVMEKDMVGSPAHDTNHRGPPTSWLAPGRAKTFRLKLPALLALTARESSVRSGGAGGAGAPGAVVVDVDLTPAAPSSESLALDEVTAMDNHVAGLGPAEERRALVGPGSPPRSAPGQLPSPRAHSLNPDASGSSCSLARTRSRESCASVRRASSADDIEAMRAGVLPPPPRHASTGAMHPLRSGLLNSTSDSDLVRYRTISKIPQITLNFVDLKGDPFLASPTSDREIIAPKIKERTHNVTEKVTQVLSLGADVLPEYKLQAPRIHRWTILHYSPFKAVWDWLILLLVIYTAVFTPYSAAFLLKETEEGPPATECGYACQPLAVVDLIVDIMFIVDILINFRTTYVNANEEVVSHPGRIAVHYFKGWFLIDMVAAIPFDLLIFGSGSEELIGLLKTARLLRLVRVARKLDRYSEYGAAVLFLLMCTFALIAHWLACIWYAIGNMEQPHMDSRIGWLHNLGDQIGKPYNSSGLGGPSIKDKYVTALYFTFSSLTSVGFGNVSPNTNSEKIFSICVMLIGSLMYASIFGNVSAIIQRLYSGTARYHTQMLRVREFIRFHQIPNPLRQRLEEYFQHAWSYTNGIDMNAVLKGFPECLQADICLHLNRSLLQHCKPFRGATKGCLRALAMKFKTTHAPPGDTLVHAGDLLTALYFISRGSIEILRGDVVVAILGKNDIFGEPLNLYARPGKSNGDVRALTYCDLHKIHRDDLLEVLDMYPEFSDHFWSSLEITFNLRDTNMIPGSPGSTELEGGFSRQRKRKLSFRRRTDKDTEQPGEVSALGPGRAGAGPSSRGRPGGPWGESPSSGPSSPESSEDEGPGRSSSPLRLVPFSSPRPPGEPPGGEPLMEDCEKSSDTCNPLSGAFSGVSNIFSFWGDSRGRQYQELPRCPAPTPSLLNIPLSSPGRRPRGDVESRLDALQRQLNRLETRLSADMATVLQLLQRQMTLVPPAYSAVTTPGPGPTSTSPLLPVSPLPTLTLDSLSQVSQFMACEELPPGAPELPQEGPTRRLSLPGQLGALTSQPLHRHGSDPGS
Items are presented alongside their recorded hERG inhibition rate (%).
reported metric: hERG inhibition rate (%)

> print(dat)
                                   molecule                               target.desc  measured.value
1  CC(C)(O)CCCOc1cc(-c2cnn(CC(C)(C)O)c2)c2c(c1)[C@@](O)(C(F)(F)F)c1ccccc1-2  hERG current (hERG-transfected HEK293 cells) (Homo sapiens, UniProt Q12809)            18.6
2  CC(C)(O)COc1cc(-c2cnn(CC(C)(C)O)c2)c2c(c1)[C@@](O)(C(F)(F)F)c1ccccc1-2  hERG current (hERG-transfected HEK293 cells) (Homo sapiens, UniProt Q12809)            13.2
3  NC(=O)Cn1cc(-c2cc(OCCC34CC5CC(CC(O)(C5)C3)C4)cc3c2-c2ccccc2[C@]3(O)C(F)(F)F)cn1 [compound (A), reference compound]  hERG current (hERG-transfected HEK293 cells) (Homo sapiens, UniProt Q12809)            11.8
4  C[C@H](O)COc1cc(-c2cnn(CC(C)(C)O)c2)c2c(c1)[C@@](O)(C(F)(F)F)c1ccccc1-2  hERG current (hERG-transfected HEK293 cells) (Homo sapiens, UniProt Q12809)            16.2
5  Cn1cc(-c2cc(OCC(C)(C)O)cc3c2-c2ccccc2[C@]3(O)C(F)(F)F)cn1 [compound (B), reference compound]  hERG current (hERG-transfected HEK293 cells) (Homo sapiens, UniProt Q12809)            72.9

----------
assay: Metabolic stability test in liver microsome (rat); type: in vitro ADME; conditions: 60 min
reported metric: stability in liver microsome (residual ratio %)

> print(dat)
                                   compound  measured.value
1  NC(=O)Cn1cc(-c2cc(OCCC34CC5CC(CC(O)(C5)C3)C4)cc3c2-c2ccccc2[C@]3(O)C(F)(F)F)cn1 [compound (A), reference compound]             0.0
2  CC(C)(O)CCCOc1cc(-c2cnn(CC(C)(C)O)c2)c2c(c1)[C@@](O)(C(F)(F)F)c1ccccc1-2            93.5
3  C[C@H](O)COc1cc(-c2cnn(CC(C)(C)O)c2)c2c(c1)[C@@](O)(C(F)(F)F)c1ccccc1-2            95.4
4  CC(C)(O)CCOc1cc(-c2cnn(CC(C)(C)O)c2)c2c(c1)[C@@](O)(C(F)(F)F)c1ccccc1-2            99.7
5  Cn1cc(-c2cc(OCC(C)(C)O)cc3c2-c2ccccc2[C@]3(O)C(F)(F)F)cn1 [compound (B), reference compound]            92.1
6  CC(C)(O)COc1cc(-c2cnn(CC(C)(C)O)c2)c2c(c1)[C@@](O)(C(F)(F)F)c1ccccc1-2            93.6

----------
experiment: Metabolic stability test in liver microsome (human); format: in vitro ADME; conditions: 10 min, 5 μM test compound
Listed here are molecules together with their documented stability in liver microsome (residual ratio %).
reported metric: stability in liver microsome (residual ratio %)

> print(dat)
                                   molecule  value.units  measured.value
1  C[C@H](O)COc1cc(-c2cnn(CC(C)(C)O)c2)c2c(c1)[C@@](O)(C(F)(F)F)c1ccccc1-2            %           102.1
2  NC(=O)Cn1cc(-c2cc(OCCC34CC5CC(CC(O)(C5)C3)C4)cc3c2-c2ccccc2[C@]3(O)C(F)(F)F)cn1 [compound (A), reference compound]            %            34.8
3  CC(C)(O)CCCOc1cc(-c2cnn(CC(C)(C)O)c2)c2c(c1)[C@@](O)(C(F)(F)F)c1ccccc1-2            %            98.8
4  CC(C)(O)COc1cc(-c2cnn(CC(C)(C)O)c2)c2c(c1)[C@@](O)(C(F)(F)F)c1ccccc1-2            %            94.9
5  CC(C)(O)CCOc1cc(-c2cnn(CC(C)(C)O)c2)c2c(c1)[C@@](O)(C(F)(F)F)c1ccccc1-2            %            96.0
6  Cn1cc(-c2cc(OCC(C)(C)O)cc3c2-c2ccccc2[C@]3(O)C(F)(F)F)cn1 [compound (B), reference compound]            %            98.0

----------
Below, each entry is listed with its recorded stability in liver microsome (residual ratio %).
experiment: Metabolic stability test in liver microsome (rat); format: in vitro ADME; conditions: 10 min
reported metric: stability in liver microsome (residual ratio %)

> print(dat)
                                   compound  value.units  measured.value
1  CC(C)(O)CCOc1cc(-c2cnn(CC(C)(C)O)c2)c2c(c1)[C@@](O)(C(F)(F)F)c1ccccc1-2 [compound (3)]            %            98.2
2  NC(=O)Cn1cc(-c2cc(OCCC34CC5CC(CC(O)(C5)C3)C4)cc3c2-c2ccccc2[C@]3(O)C(F)(F)F)cn1 [compound (A), reference compound]            %            24.8
3  CC(C)(O)COc1cc(-c2cnn(CC(C)(C)O)c2)c2c(c1)[C@@](O)(C(F)(F)F)c1ccccc1-2 [compound (2)]            %            95.1
4  C[C@H](O)COc1cc(-c2cnn(CC(C)(C)O)c2)c2c(c1)[C@@](O)(C(F)(F)F)c1ccccc1-2 [compound (1)]            %           102.0
5  CC(C)(O)CCCOc1cc(-c2cnn(CC(C)(C)O)c2)c2c(c1)[C@@](O)(C(F)(F)F)c1ccccc1-2 [compound (4)]            %            98.9
6  Cn1cc(-c2cc(OCC(C)(C)O)cc3c2-c2ccccc2[C@]3(O)C(F)(F)F)cn1 [compound (B), reference compound]            %           101.1
